Target: T1, human CD19 on Raji cells (human, UniProt P15391 20-556)
T1 construct: whole, on cells
T1 sequence (looked up): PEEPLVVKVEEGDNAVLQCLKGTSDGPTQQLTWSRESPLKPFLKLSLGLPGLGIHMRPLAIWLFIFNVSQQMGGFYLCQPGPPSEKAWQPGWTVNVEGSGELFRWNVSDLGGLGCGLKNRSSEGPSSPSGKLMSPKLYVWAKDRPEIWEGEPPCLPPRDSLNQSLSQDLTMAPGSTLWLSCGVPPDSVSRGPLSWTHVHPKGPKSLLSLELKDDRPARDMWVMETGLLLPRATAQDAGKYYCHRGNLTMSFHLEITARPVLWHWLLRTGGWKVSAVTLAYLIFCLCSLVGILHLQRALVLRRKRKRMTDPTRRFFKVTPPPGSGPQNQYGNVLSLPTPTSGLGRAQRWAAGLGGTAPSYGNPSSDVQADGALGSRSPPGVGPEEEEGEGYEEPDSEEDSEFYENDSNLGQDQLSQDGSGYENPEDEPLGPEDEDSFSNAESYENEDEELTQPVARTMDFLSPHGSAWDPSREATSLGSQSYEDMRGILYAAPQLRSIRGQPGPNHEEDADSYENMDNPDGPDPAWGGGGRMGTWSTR
Assay: FACS on Raji cells
pEC50: −log10 of the molar value.
measurement-kind: pEC50

>>> readout_value("F4.82.11 (antibody, human IgG1, V domains shown, human-murine chimeric antibody, human IgG1) VH: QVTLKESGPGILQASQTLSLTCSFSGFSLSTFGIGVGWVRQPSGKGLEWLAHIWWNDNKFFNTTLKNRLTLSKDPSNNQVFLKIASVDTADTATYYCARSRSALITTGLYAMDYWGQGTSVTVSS VL: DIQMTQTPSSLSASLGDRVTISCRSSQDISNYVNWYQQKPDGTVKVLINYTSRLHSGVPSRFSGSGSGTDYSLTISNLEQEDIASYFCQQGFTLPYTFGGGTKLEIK")
9.07
>>> readout_value("F1-mab003 (antibody, human IgG1, V domains shown, human-murine chimeric antibody, human IgG1) VH: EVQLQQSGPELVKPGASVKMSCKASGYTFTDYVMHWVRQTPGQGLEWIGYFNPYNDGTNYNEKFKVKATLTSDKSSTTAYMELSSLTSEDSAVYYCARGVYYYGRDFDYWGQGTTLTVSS VL: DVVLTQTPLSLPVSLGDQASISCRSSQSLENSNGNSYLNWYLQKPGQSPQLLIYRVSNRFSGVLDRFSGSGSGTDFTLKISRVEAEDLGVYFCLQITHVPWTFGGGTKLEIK")
9.24
>>> readout_value("F4.35.5 (antibody, human IgG1, V domains shown, human-murine chimeric antibody, human IgG1) VH: EIQLQQSGPELVKPGASVKVSCKASGYAFTSYNMYWVKQSHGKSLEWIGYIDPYNGDTRYNQKFKGKATLTVDKSSSTAYMHLNSLTSEDSAVYYCTRSGTGRDYWGQGTTLTVSS VL: QIVLTQSPAIMSASPGEKVTMTCSASSSISYMFWFQQKPGSSPRLLIYDTSSLASGVPVRFSGSGSGTSYTLTISRMEAEDAATYYCQQWSNYPYTFGGGTKLEMK")
9.16
>>> readout_value("F3.83.9 (antibody, human IgG1, V domains shown, human-murine chimeric antibody, human IgG1) VH: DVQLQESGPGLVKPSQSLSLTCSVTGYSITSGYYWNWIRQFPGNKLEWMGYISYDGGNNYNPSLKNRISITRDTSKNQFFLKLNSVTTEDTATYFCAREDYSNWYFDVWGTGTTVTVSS VL: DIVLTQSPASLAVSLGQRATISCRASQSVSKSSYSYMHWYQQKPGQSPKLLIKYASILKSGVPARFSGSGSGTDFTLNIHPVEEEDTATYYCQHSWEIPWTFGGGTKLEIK")
8.76
>>> readout_value("F4.41.1 (antibody, human IgG1, V domains shown, human-murine chimeric antibody, human IgG1) VH: QVQLQQSGAELVRPGTSVKVSCKASGYAFTNYLIEWVKQRPGQGLEWIGVINPGSGDTLYNEKFKGKATLTADKSSTTAYMQLSGLTSDVSAIYFCARSPPITTIVADYFDYWGQGTTLTVSS VL: DIQMTQTTSSLSASLGDRVTISCRASQDISNYLNWYQQKPDGTVKLLIYYTSRLHSGVPSRFSGSGSGADYSLTISNLEQEDIATYFCQQGKTLPYTFGGGTKLEIK")
8.99
>>> readout_value("F3.81.2 (antibody, human IgG1, V domains shown, human-murine chimeric antibody, human IgG1) VH: QVQLQQPGAELVMPGASVKLSCKASAYTFTNYWMHWVKQRPGHGLEWIGEIDPSDSYTDYNQNFKAKATLTVDKSSSTAYMQLSSLTSEDSAVYYCARLMGRYFDVWGTGTTVTVSS VL: DIVMTQSHKFMSTSVGDRVSITCKASQDVSAAVAWYQQKPGQSPKLLINSASYRYTGVPDRFTGSGSGTDFTFTISSVQAEDLAVYYCQQHYSTPLTFGAGTKLELR")
9.17
>>> readout_value("F5.7.1 (antibody, human IgG1, V domains shown, human-murine chimeric antibody, human IgG1) VH: QVTLKESGPGILQPSQTLSLTCSFSGFSLTTFGMGVGWIRQPSGKGLEWLTHIWWDDDKYYNPALKSRLTISKDTSKNQVFLRIANVDTADTATYYCARVITTGVPYFDYWGQGTTLTVSS VL: ENVLTQSPAIMSASPGEKVTMTCRASSSVSSSYLYWYQQKSGASPKLWISSTSNLASGVPARFSGSGSGTSYSLTINSVEAEDAATYYCQQYSGYPWTFGGGTKLEIK")
8.95
